# Tested on: HT29 colon
# Experiment: NCI-60 one-dose screen, 48 h (100 = growth as untreated, 0 = no growth, -100 = all killed)
# Conditions used: 10 µM unless noted
The panel holds about 83,000 compounds, 20% with a hit somewhere; the sample as a whole holds those more often.
Measurement kind: growth (%)
Answers are plain numbers, in %.

Provide the reported growth of each entry below, same order.
1. COC(=O)CCc1n(Cc2ccc3ccccc3c2)c2ccccc2[n+]1Cc1ccc2ccccc2c1
2. CCCCCCCCCCCCCC1=NCC[N+]1(CCO)Cc1ccccc1 (stereo not drawn)
3. CCCCCCN1C(=O)CN=C1Nc1ccc2cc3ccc(NC4=NCC(=O)N4CCCCCC)cc3nc2c1
4. Cc1cc(C)nc(NS(=O)(=O)c2ccc(Nc3ccc4c5c(n(CCCN(C)C)c(=O)c4c3)-c3ccccc3C5=O)cc2)n1
5. NC(=O)c1ccc(C2C3=C(CCCC3=O)OC3=C2C(=O)c2ccccc2C3=O)cc1 (stereo not drawn)

result:
1. -25.5
2. -89.3
3. 15.5
4. 74.8
5. 29.7
